The measurements presented in this section are drawn from paper PMC8811960.

Assay: Plasma pharmacokinetics after oral dosing in NRG mice
Format: in vivo
Details: mouse; NRG mice plasma, 15 mg/kg/d PO qd x 5 in SAV (SOR 30 mg/kg/d, VEN 150 mg/kg/d), after 5th dose
PROPERTY_NAME: Tmax (h)
Respond numerically; units are h and should not be typed.

Give the measured Tmax of C=CCO/N=C(/C[C@H]1O[C@@H]2O[C@@]3(C)CC[C@H]4[C@H](C)CC[C@@H]([C@H]1C)[C@@]24OO3)[C@H]1O[C@@H]2O[C@@]3(C)CC[C@H]4[C@H](C)CC[C@@H]([C@H]1C)[C@@]24OO3 .
2

###

Experiment: Plasma pharmacokinetics after oral dosing in NRG mice
Assay type: in vivo
Conditions: mouse, 15 mg/kg/day; NRG mice plasma, 15 mg/kg/d PO qd x 5 alone, after 5th dose
Procedure: Mice were dosed orally with ART631 at empirically determined maximally tolerated doses (MTDs) of 75 mg/kg ART631 as a single dose alone or 15 mg/kg as a multiple dose regimen (once daily x5), either alone or in combination with SOR (30 mg/kg/d) and VEN (150 mg/kg/d), for side-by-side comparison to the ART838, SOR and VEN combination evaluated previously ([20]). […] ART631 was quantified in plasma as described below. […] The AUClast was calculated using the log-linear trapezoidal method. […]
PROPERTY_NAME: CL/F (mL/min/kg)
Respond numerically; units are mL/min/kg and should not be typed.

Give the measured CL/F of C=CCO/N=C(/C[C@H]1O[C@@H]2O[C@@]3(C)CC[C@H]4[C@H](C)CC[C@@H]([C@H]1C)[C@@]24OO3)[C@H]1O[C@@H]2O[C@@]3(C)CC[C@H]4[C@H](C)CC[C@@H]([C@H]1C)[C@@]24OO3 .
145

###

Tested on: HL60
Experiment: alamarBlue growth inhibition, HL60
Assay type: cell-based
Details: Homo sapiens, HL-60, HL60, 48h, mean of 2 independent assays ± SD
PROPERTY_NAME: IC50
Write the quantity with the unit trailing the number.

Consider the worked cases shown below.
C=CCO/N=C(/C[C@H]1O[C@@H]2O[C@@]3(C)CC[C@H]4[C@H](C)CC[C@@H]([C@H]1C)[C@@]24OO3)[C@H]1O[C@@H]2O[C@@]3(C)CC[C@H]4[C@H](C)CC[C@@H]([C@H]1C)[C@@]24OO3; 41 nM
C[C@@H]1CCC2[C@@H](C)[C@@H](CC(COP(=O)(Oc3ccccc3)Oc3ccccc3)C[C@H]3O[C@@H]4O[C@@]5(C)CCC6[C@H](C)CCC([C@H]3C)[C@]64OO5)O[C@@H]3O[C@@]4(C)CCC1[C@@]23OO4 (stereo partly shown) [ART838, reference compound]; 45 nM
C[C@H]1[C@H](OC(=O)CCC(=O)O)O[C@@H]2O[C@@]3(C)CC[C@H]4[C@H](C)CC[C@@H]1[C@@]24OO3 [AS, artesunate, reference compound]; 1060 nM

Now let's try a different one.
Give the measured IC50 of C[C@@H]1CCC2[C@@H](C)[C@@H](C(=O)C[C@H]3O[C@@H]4O[C@@]5(C)CCC6[C@H](C)CCC([C@H]3C)[C@]64OO5)O[C@@H]3O[C@@]4(C)CCC1[C@@]23OO4 (stereo partly shown) .
72 nM
